Source of measurements: the supplement of paper PMC11417369

- Tested on: PfAP2-EXP AP2 domain (GST-tagged)
- method: gcPBM binding intensity (ln(normalized median fluorescence intensity)); higher = stronger DNA binding
The full ranking holds about 25,000 sequences; the median of “ln(normalized median fluorescence intensity)” is about 8.6, and the highest 2% start at about 10. Shown is part of a subset that was picked to be rich in the highest values.
metric-name: gcPBM binding intensity (ln)

1. AAAAATAAAAAAATGACACACATATATATATATATA [CACACA_site2307] : 10
2. TTCTAGAAAACTGATCGTACAAATAAATATAGACAC [XGTACX_site2808] : 8.88
3. ATATAAATGTATATGACACACATATATATATATATA [CACACA_site889] : 9.91
4. TCATTCCATACTTTAACACACAAATATATTTAATCC [CACACA_site145] : 8.76
5. AATGACAACCTTGTCACACATATATATATATATATA [CACACA_site5977] : 10.2

---

Listed here: items and their measured gcPBM binding intensity (ln).
- Tested on: PfAP2-EXP AP2 domain (GST-tagged)
- method: gcPBM binding intensity (ln(normalized median fluorescence intensity)); higher = stronger DNA binding
Over roughly 25,000 sequences, “ln(normalized median fluorescence intensity)” has its median near 8.6; the highest 2% begin near 10. The sample as a whole holds a higher share of the highest values than the screen did.
metric-name: gcPBM binding intensity (ln)

1) AATATATAAATATTGTGTACTTATTTTTTTATATGT [XGTACX_site4377] : 8.49
2) TTTTTATGAAAATAAACACACGATTTATTATATATA [CACACA_site1311] : 8.27
3) CCTAAATAAATGGACACACACATATATATATATATA [CACACA_site1439] : 10.2
4) AATGATTTTGATTAACGTACGTACAAATATATATAT [XGTACX_site6604] : 9.31
5) TATATATATATATATGTGCACATTTTATTAAAATGT : 10.2
6) TACACAAATATATATATATATATATATATATATATA [XGTACX_negctrl_site305] : 10.2
7) TTTTAATTTAAAAATTAATTTATATATATATATATA [TGCATGCA_negctrl_site447] : 10.3
8) TTTTTAATAATCTCTCAAAATGTTCTTATATTTTAC [CACACA_negctrl_site1691] : 8.11
9) TTATTTTTATATTTTAATTTTAAAAAAATTTTAATT [CACACA_negctrl_site777] : 8.04
10) ATGATATGGATAAATACACACAATAAAATAATGTCT [CACACA_site6786] : 8.71
11) TTTTTTAAAATAATAGGTACACATAAAAAAAAAAAA [XGTACX_site2517] : 8.72
12) TATCTGTAAATGGACACACACATATATATATATATA [CACACA_site5926] : 10.2
13) ATTTTGTTTTTTTTTGCACACCATAAGGAGTGTAGG [CACACA_site1414] : 8.84
14) TTGAATAAATTGGAATAAATATAATAAAATAAGGAA [XGTACX_negctrl_site302] : 8.62
15) TAATAAAAAATATATACACACAAATAAATAAATAAA [CACACA_site4037] : 8.75
16) AATAAAAAACATGAAAGTACTTTAAAAAAGGTAATA [XGTACX_site1897] : 8.9
17) AAATAAAAAGGGTGCACACAAAAATATATATATATA [CACACA_site1728] : 10.5
18) TAAATATATATATACACACACATACACAAAAAAAAA [CACACA_site3580] : 8.73
19) AATGTAAAATATATGTGTACATATGTTTATATATAT [XGTACX_site2216] : 8.71
20) TATAATAATATTATAGTGCATATTATTTATATATAA [GTGCAC_site9820] : 8.22
21) AAAAATAAAGGGTGTGCACACAAAAATATATATATA [CACACA_site1727] : 9.8
22) TATATGCAAAATGTCACACATGTGATAAATACATAT [CACACA_site4302] : 8.72
23) ATAATATATAATATAGTGCATTATTTATTAATTAAT [GTGCAC_site9852] : 8.56
24) ATTTTTTTATAAAATTTTTATATAATTTATTATAAA [GTGCAC_negctrl_site96] : 8.16
25) TGTAGATAAAATAAACGTACGTATTGATTTTTTTCA [XGTACX_site1610] : 8.26
26) TTATACACAAAAAAAAAAATATATATATATATATAT [XGTACX_negctrl_site5] : 10.2
27) TAAAGAGTTACCATTTGTACTTACGCACACATAAAA [XGTACX_site3145] : 8.45
28) AAAAATAAAAGGTGTGCACACAAAAATATATATATA [CACACA_site8507] : 9.74
29) CACAAATATATACATACACACATATATACACATATA [CACACA_site8024] : 8.47
30) TATCAAAATTGTAATTGTACTTGTAAGTGGATATAT [XGTACX_site5949] : 8.68
31) TATATGTAAATGGACACACACATATATATATATATA [CACACA_site3659] : 10.1
32) ACACATAAATGAATAAATAAATAAATATAAATATAA [CACACA_negctrl_site1784] : 8.36
33) AAAATATATATGTATGTTTATATGTTTATATATATT [XGTACX_negctrl_site337] : 8.18
34) AAAAAAAAGGAAAATAAAAATAAAAAAAAATAATAA [XGTACX_negctrl_site601] : 8.53
35) TACAAAAAAAAATAAAATACATATATATATATATAT [XGTACX_negctrl_site608] : 10.3
36) TAACAAAACATAGATTGTACATATTATAAATGTATA [XGTACX_site1543] : 8.46
37) CCTAAATAAATGGACACACACATATTTATATTTATA [CACACA_site6789] : 8.46
38) AATGTATATATATATATATATATATATATTTATTTA [CACACA_negctrl_site113] : 8.43

---

- Test system: PfAP2-EXP AP2 domain (GST-tagged)
- method: gcPBM binding intensity (ln(normalized median fluorescence intensity)); higher = stronger DNA binding
The full ranking holds about 25,000 sequences; the median of “ln(normalized median fluorescence intensity)” is about 8.6, and the highest 2% start at about 10. The list comes from a sample in which the highest values are over-represented; it also holds close analogues and randomly drawn sequences.
metric-name: gcPBM binding intensity (ln)

1. ATATTATGTCTACATAAACACACATATATATAAAAA [CACACA_site7976] : 8.62
2. TTTAATATGTATTTTTTTTTTTTTTTTTTTTTTTTT [XGTACX_negctrl_site440] : 9.06
3. ATATTATGAAGGGATATTTTCAAAAATATTAGGAGA [CACACA_negctrl_site942] : 8.64
4. TTATTAAATGAAAAATGTACATATAAATGATTATAT [XGTACX_site2788] : 8.51
5. ATATATATAAATATATGTACATAAATATATTTGTAA [XGTACX_site6715] : 8.47
6. TTATTTTTCAATGAAAAGGATTATATATATATATAT [CACACA_negctrl_site757] : 10.2
7. ATTTTGTATATATTTTGTACATATTTTGTATATATT [XGTACX_site885] : 8.68
8. ACATAAATAAATTAATGTACATATATATTTGTATAT [XGTACX_site3160] : 8.36
9. TTTTTCTTTTTTACAGTGCATAAATATATGTATTGT [GTGCAC_site9399] : 8.61

---

- System: PfAP2-EXP AP2 domain (GST-tagged)
- method: gcPBM binding intensity (ln(normalized median fluorescence intensity)); higher = stronger DNA binding
Whole data set: some 25,000 sequences, median “ln(normalized median fluorescence intensity)” near 8.6, cut for the highest 2% near 10. For the sample, the highest values were picked, then their nearest neighbours and some sequences at random.
metric-name: gcPBM binding intensity (ln)

1) ATATTATATATATACACACACACATGCATGCACCTA [CACACA_site106] : 10.1
2) AAATATAATAACGAACGTACTTATTATAATTTGTAA [XGTACX_site2342] : 8.32
3) TATATATATTTATATGCATGTAATATATTTGTATTG [TGCATGCA_site323] : 8.71
4) TTTTGATATAAAAAAAGTACATTAATAATATTAATT [XGTACX_site4248] : 8.29
5) TAATCAATTCAATATTGTACGATATTTACCTTTAAA [XGTACX_site4678] : 8.89
6) AACCATTGGGAAAGGGTGCACATATATATATATATA : 10.8
7) GAATCACTAATTTTTTTACACACCACAATTTAATTT [CACACA_site8311] : 8.94
8) ATAAATATTGGGTGCACACACATAATATATATATAT [CACACA_site2272] : 10.1
9) AATATATATATTAAATGTACATTACATAATTATATA [XGTACX_site3450] : 8.54
10) TATACAGATGGACACACACACATATATATATATATA [CACACA_site5272] : 10.2
11) ATTTTTTATTGTTATAAAAAAAAAATTAAACAATTA [CACACA_negctrl_site1077] : 8.19
12) CATGTATTTTATATTACACACTAATATTATAGATAT [CACACA_site6819] : 8.27
13) GGAAAAACCATTCGCACACACACATAATATATAATA [CACACA_site1424] : 8.66
14) CCAACTAAAAAGGAATGTACATAGTTATGGTTGGAA [XGTACX_site8762] : 9.04
15) GTGAAATGGAAAAAAAGTACAGATTACATAAGTATT [XGTACX_site6355] : 8.64
16) ATGGGACATATATATACACACATATATATATATATA [CACACA_site1202] : 10
17) ATATATATATATAATACACACTAAAGTAACATAATA [CACACA_site5580] : 9.74
18) ATTTTTTCATATTCTACACACGTGAACAAATGTGTC [CACACA_site3007] : 8.69
19) AACTTACTTGGACATACACACATATATATATATATA [CACACA_site2978] : 10.2
20) ATTAAATACTTCGATTGTACAATTTTTTTTTTTTTT [XGTACX_site832] : 8.59
